- ASSAY TARGET: T1, human PD-1 (construct not stated) (human, UniProt Q15116 25-167, limits assumed)
- T1 construct: also called PD-1 analyte
- T1 sequence (Q15116 25-167 limits assumed): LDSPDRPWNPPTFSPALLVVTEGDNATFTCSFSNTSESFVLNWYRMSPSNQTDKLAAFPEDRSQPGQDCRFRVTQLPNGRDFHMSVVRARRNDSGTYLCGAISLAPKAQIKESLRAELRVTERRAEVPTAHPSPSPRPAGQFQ
- PROTOCOL SUMMARY: Biacore, antibody captured, PD-1 analyte
- Protocol: To further characterize the binding characteristics of the antibodies, 10 hybridoma antibodies were profiled using Biacore (Biacore 3000, GE) to elucidate binding kinetics and calculate equilibrium binding constants. This assay was performed by capture method, using the mouse antibody capture kit (BR-1008-38, GE). After diluting anti-mouse Fc mab to 25 μg/ml in pH 5.0 immobilization buffer, immobilization was conducted with the parameters shown in Table 6 at a flow rate of 5 μl/min. […]
Below is a list of entries, each paired with its recorded kon value.
# output: bare number, implied unit M⁻¹ s⁻¹

- BINDER: "15H5 murine anti-PD-1 antibody (antibody, V domains shown, Purified hybridoma antibody; also called 15H5-mIgG1) VH: EVKLVESGGGLVKPGGSLKLSCAASGFAFRSYDMSWVRQTPEKILEWVATISGGGSYTYYQDSVKGRFTISRDNARNTLYLQMSSLRSEDTALYYCASPYGPYFDYWGQGTTLTVSS VL: DIQMNQSPSSLSASLGDTITITCHASQSINVWLSWYQQKPGNIPKLLIYRASNLHTGVPSRFSGSGSGTGFTLTISSLQPDDIATYYCQQGQSYPWTFGGGTKLEIKR"
  UNIT OF MEASURE: "M⁻¹ s⁻¹"
  kon: "2e+06"

Field: next binder
Ask: Data request, read-out kon, for 7D3 murine anti-PD-1 antibody (antibody, V domains shown, Purified hybridoma antibody; also called 7D3-mIgG1) VH: EVKLVESGGGLVKPGGSLKLSCGASGFTFSSYGMSWVRQTPEKRLEWVATISGGGRDIYYPDSVKGRLTISRDNAKNNLYLQMSSLRSEDTALYYCVRQYYDDWFAYWGQGTLVTVSA VL: DIVLTQSPATLSVTPGDSVSLSCRASQSISNDLHWYQQKSHESPRLLIKYVSQSISGIPSRFSGSGSGTDFTLSINSVETEDFGMYFCQQSDSWPLTFGAGTKLELKR
Result: 1.14e+06

The measured values listed here are drawn from patent US20170267762A1.
